Values from patent US7829665B2

- tested-system: full-length NS3/NS4A-2 (HCV NS3 protease) (Hepatitis C virus genotype 1a, UniProt P27958)
- Construct: Recombinant E. coli or Baculovirus full-length NS3 was diluted to 3.33 μM with assay buffer; made in house; host or cells: E. coli or baculovirus (BV) expression system
- Sequence (P27958 1027-1657): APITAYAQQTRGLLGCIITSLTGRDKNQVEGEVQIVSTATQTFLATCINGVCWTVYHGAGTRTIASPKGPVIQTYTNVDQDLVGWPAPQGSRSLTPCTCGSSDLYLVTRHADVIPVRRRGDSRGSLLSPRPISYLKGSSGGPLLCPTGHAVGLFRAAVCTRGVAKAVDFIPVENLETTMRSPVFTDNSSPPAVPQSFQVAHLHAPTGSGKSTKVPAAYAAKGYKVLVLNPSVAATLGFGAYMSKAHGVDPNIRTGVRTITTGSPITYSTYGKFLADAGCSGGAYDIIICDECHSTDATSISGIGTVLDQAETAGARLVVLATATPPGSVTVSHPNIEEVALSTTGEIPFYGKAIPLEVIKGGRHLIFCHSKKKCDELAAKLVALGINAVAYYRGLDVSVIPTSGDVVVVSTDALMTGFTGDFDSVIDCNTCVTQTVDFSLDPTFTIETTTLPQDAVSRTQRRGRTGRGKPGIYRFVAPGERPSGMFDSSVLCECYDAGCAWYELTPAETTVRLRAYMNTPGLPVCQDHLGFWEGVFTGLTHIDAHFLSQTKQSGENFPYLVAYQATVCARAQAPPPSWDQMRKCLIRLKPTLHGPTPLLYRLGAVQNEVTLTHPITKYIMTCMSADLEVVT
- measurement-protocol: NS3-NS4 protease assay / NS3 inhibition assay (RETS1 substrate, fluorescence kinetic read)
- Format: biochemical
- protocol-conditions: recombinant E. coli or Baculovirus full-length NS3 with NS4A-2; read-out: NS3-NS4 IC50
pIC50: −log10 of the molar value.
experimental-endpoint: pIC50

Data point: CN(Cc1ccc(Cl)cc1)S(=O)(=O)NC(=O)[C@@]12C[C@H]1/C=C\CCCCC[C@H](NC(=O)OC(C)(C)C)C(=O)N1CCC[C@H]1C(=O)N2 [Compound 2230] ; pIC50 = > 5.00

Form: compound = CC(C)(C)OC(=O)N[C@H]1CCCCC/C=C\[C@@H]2C[C@@]2(C(=O)Nc2cc(C3CC3)[nH]n2)NC(=O)[C@@H]2C[C@@H](OC(=O)N3Cc4cccc(F)c4C3)CN2C1=O [Compound 630] ; pIC50 = > 6.00

// sample CCCNC(=O)[C@@]12C[C@H]1/C=C\CCCCC[C@H](NCc1ccc(F)c(F)c1)C(=O)N1C[C@H](OC(=O)N3Cc4cccc(F)c4C3)C[C@H]1C(=O)N2 [Compound 625] , its pIC50 was > 5.00

---

- tested-system: full-length NS3/NS4A-2 (HCV NS3 protease) (Hepatitis C virus genotype 1a, UniProt P27958)
- Construct: Recombinant E. coli or Baculovirus full-length NS3 was diluted to 3.33 μM with assay buffer; made in house; host or cells: E. coli or baculovirus (BV) expression system
- measurement-protocol: NS3-NS4 protease assay / NS3 inhibition assay (RETS1 substrate, fluorescence kinetic read)
- Format: biochemical
- protocol-conditions: recombinant E. coli or Baculovirus full-length NS3 with NS4A-2; read-out: NS3-NS4 IC50
Consider the following molecules and their measured IC50 readings.

molecule	reported-measurement
Cc1ccc([S@+]([O-])NC(=O)[C@@]23C[C@H]2/C=C\CCCCC[C@H](NC(=O)OC(C)(C)C)C(=O)N2CCC[C@H]2C(=O)N3)cc1 [Compound 2402]	< 100 nM
CN(C)CCNC(=O)[C@@]12C[C@H]1/C=C\CCCCC[C@H](NC(=O)OC(C)(C)C)C(=O)N1C[C@H](OC(=O)N3Cc4cccc(F)c4C3)C[C@H]1C(=O)N2 [Compound 608]	> 10000 nM
O=C1N[C@]2(C(=O)NS(=O)(=O)C3CC3)C[C@H]2/C=C\CCCCC[C@H](NCc2ccccc2C(F)(F)F)C(=O)N2C[C@H](OC(=O)N3Cc4cccc(F)c4C3)C[C@@H]12 [Compound 917]	< 100 nM
O=C1N[C@]2(C(=O)NS(=O)(=O)C3CC3)C[C@H]2/C=C\CCCCC[C@H](NCc2ccc(Cl)o2)C(=O)N2C[C@H](OC(=O)N3Cc4cccc(F)c4C3)C[C@@H]12 [Compound 914]	< 100 nM

Documented IC50 of CC(C)(C)OC(=O)N[C@H]1CCCCC/C=C\[C@@H]2C[C@@]2(C(=O)NS(=O)(=O)Nc2ccccc2Cl)NC(=O)[C@@H]2CCCN2C1=O [Compound 2233] : < 1000 nM

---

- tested-system: full-length NS3/NS4A-2 (HCV NS3 protease) (Hepatitis C virus genotype 1a)
- Construct: Recombinant E. coli or Baculovirus full-length NS3 was diluted to 3.33 μM with assay buffer; made in house; host or cells: E. coli or baculovirus (BV) expression system
- measurement-protocol: NS3-NS4 protease assay / NS3 inhibition assay (RETS1 substrate, fluorescence kinetic read)
- Assay type: biochemical
- protocol-conditions: recombinant E. coli or Baculovirus full-length NS3 with NS4A-2; read-out: NS3-NS4 IC50
experimental-endpoint: IC50

Solved entries (count: 8):
compound	IC50
CC(C)(C)OC(=O)N[C@H]1CCCCC/C=C\[C@@H]2C[C@@]2(C(=O)NS(=O)(=O)C2CC2)NC(=O)[C@@H]2C[C@@H](OC(=O)N3Cc4cccc(N5CCOCC5)c4C3)CN2C1=O [Compound 158]	< 100 nM
CC(C)(C)OC(=O)N[C@H]1CCCCC/C=C\[C@@H]2C[C@@]2(C(=O)NS(=O)(=O)C2CC2)NC(=O)C2Cc3cc(Oc4cccc(Cl)c4)ccc3CN2C1=O (stereo partly shown) [Compound 2007]	< 1000 nM
C=CCN(C)S(=O)(=O)NC(=O)[C@@]12C[C@H]1/C=C\CCCCC[C@H](NC(=O)OC(C)(C)C)C(=O)N1CCC[C@H]1C(=O)N2 [Compound 412]	< 10000 nM
COC(=O)c1cccc(CNC(=O)[C@@]23C[C@H]2/C=C\CCCCC[C@H](NC(=O)OC(C)(C)C)C(=O)N2C[C@H](OC(=O)N4Cc5cccc(F)c5C4)C[C@H]2C(=O)N3)c1 [Compound 602]	< 1000 nM
CC(C)(C)OC(=O)N[C@H]1CCCCC/C=C\[C@@H]2C[C@@]2(C(=O)NS(=O)(=O)N2CCC(F)(F)C2)NC(=O)[C@@H]2C[C@@H](OC(=O)N3Cc4cccc(Cl)c4C3)CN2C1=O [Compound 211]	< 100 nM
CC(C)(C)OC(=O)N[C@H]1CCCCC/C=C\[C@@H]2C[C@@]2(C(=O)NS(=O)(=O)C2(Cc3ccccc3)CC2)NC(=O)[C@@H]2C[C@@H](OC(=O)N3Cc4ccccc4C3)CN2C1=O [Compound 101]	< 100 nM
O=C1N[C@]2(C(=O)NS(=O)(=O)C3CC3)C[C@H]2/C=C\CCCCC[C@H](NCc2ccc(F)c(F)c2)C(=O)N2C[C@H](OC(=O)N3Cc4cccc(F)c4C3)C[C@@H]12 [Compound 904]	< 100 nM
CC(C)(O)CC(=O)N[C@H]1CCCCC/C=C\[C@@H]2C[C@@]2(C(=O)NS(=O)(=O)C2CC2)NC(=O)[C@@H]2C[C@@H](OC(=O)N3Cc4cccc(F)c4C3)CN2C1=O [Compound 252]	< 100 nM

IC50 for CC[C@@H]1C[C@H]2C(=O)N[C@]3(C(=O)O)C[C@H]3/C=C\CCCCC[C@H](NC(=O)OC3CCCC3)C(=O)N2C1 [Compound 313] is < 10000 nM

Field IC50 (entry O=C(N[C@H]1CCCCC/C=C\[C@@H]2C[C@@]2(C(=O)NS(=O)(=O)c2cccs2)NC(=O)[C@@H]2C[C@@H](OC(=O)N3CCc4ccccc4C3)CN2C1=O)OC1CCCC1 [Compound 190] ) reads < 100 nM

---

- tested-system: full-length NS3/NS4A-2 (HCV NS3 protease) (Hepatitis C virus genotype 1a)
- Construct: Recombinant E. coli or Baculovirus full-length NS3 was diluted to 3.33 μM with assay buffer; made in house; host or cells: E. coli or baculovirus (BV) expression system
- measurement-protocol: NS3-NS4 protease assay / NS3 inhibition assay (RETS1 substrate, fluorescence kinetic read)
- Type: biochemical
- protocol-conditions: recombinant E. coli or Baculovirus full-length NS3 with NS4A-2; read-out: NS3-NS4 IC50
pIC50: −log10 of the molar value.
Form field: pIC50 (one value per entry).

// solved cases for pIC50 follow
compound	reported-measurement
Cc1cccc(C)c1CN[C@H]1CCCCC/C=C\[C@@H]2C[C@@]2(C(=O)NS(=O)(=O)C2CC2)NC(=O)[C@@H]2C[C@@H](OC(=O)N3Cc4cccc(F)c4C3)CN2C1=O [Compound 918]	> 7.00
COc1cccc(CN[C@H]2CCCCC/C=C\[C@@H]3C[C@@]3(C(=O)NS(=O)(=O)C3CC3)NC(=O)[C@@H]3C[C@@H](OC(=O)N4Cc5cccc(F)c5C4)CN3C2=O)c1 [Compound 906]	> 7.00

Next item in the queue.
Looking up CC(C)(C)OC(=O)N[C@H]1CCCCC/C=C\[C@@H]2C[C@@]2(C(=O)NS(=O)(=O)/C=C/c2ccccc2)NC(=O)[C@@H]2CCCN2C1=O [Compound 2125] , I found its pIC50 recorded as > 6.00

---

- tested-system: full-length NS3/NS4A-2 (HCV NS3 protease) (Hepatitis C virus genotype 1a, UniProt P27958)
- Construct: Recombinant E. coli or Baculovirus full-length NS3 was diluted to 3.33 μM with assay buffer; made in house; host or cells: E. coli or baculovirus (BV) expression system
- measurement-protocol: NS3-NS4 protease assay / NS3 inhibition assay (RETS1 substrate, fluorescence kinetic read)
- Format: biochemical
- protocol-conditions: recombinant E. coli or Baculovirus full-length NS3 with NS4A-2; read-out: NS3-NS4 IC50
experimental-endpoint: IC50

Consider the following illustrative entries.
compound	tested-system	IC50
CC(C)(C)OC(=O)N[C@H]1CCCCC/C=C\[C@@H]2C[C@@]2(C(=O)NS(=O)(=O)CCc2ccccc2)NC(=O)[C@@H]2CCCN2C1=O	full-length NS3/NS4A-2 (HCV NS3 protease) (Hepatitis C virus genotype 1a, UniProt P27958)	< 10 µM
O=C(N[C@H]1CCCCC/C=C\[C@@H]2C[C@@]2(C(=O)NS(=O)(=O)C2CC2)NC(=O)[C@@H]2CCCN2C1=O)OC1CCCC1	full-length NS3/NS4A-2 (HCV NS3 protease) (Hepatitis C virus genotype 1a, UniProt P27958)	< 1 µM
CC(C)(C)OC(=O)N[C@H]1CCCCCCC[C@@H]2C[C@@]2(C(=O)O)NC(=O)C2Cc3ccccc3CN2C1=O (stereo partly drawn)	full-length NS3/NS4A-2 (HCV NS3 protease) (Hepatitis C virus genotype 1a, UniProt P27958)	> 10 µM
CC(C)(C)OC(=O)N[C@H]1CCC(F)(F)CC/C=C\[C@@H]2C[C@@]2(C(=O)O)NC(=O)[C@@H]2C[C@@H](OC(=O)N3Cc4ccccc4C3)CN2C1=O	full-length NS3/NS4A-2 (HCV NS3 protease) (Hepatitis C virus genotype 1a, UniProt P27958)	< 0.1 µM

The recorded IC50 for entry CN(C)c1ccc(S(=O)(=O)NC(=O)[C@@]23C[C@H]2/C=C\CCCCC[C@H](NC(=O)OC2CCCC2)C(=O)N2C[C@H](OC(=O)N4CCc5ccccc5C4)C[C@H]2C(=O)N3)cc1 equals < 0.1 µM

Value of IC50 reported for the compound CC(C)(C)OC(=O)N[C@H]1CCCCC/C=C\[C@@H]2C[C@@]2(C(=O)NS(=O)(=O)C2CCCC2)NC(=O)[C@@H]2CCCN2C1=O is < 1 µM
